self-splicing fitness (ln): recorded values
Experiment: self-splicing fitness, log relative to wild type (ln ratio); higher = more splicing; Tetrahymena group I intron in knt gene, E. coli kanamycin selection, DiMSum; sequences stand for … in CUCUCU…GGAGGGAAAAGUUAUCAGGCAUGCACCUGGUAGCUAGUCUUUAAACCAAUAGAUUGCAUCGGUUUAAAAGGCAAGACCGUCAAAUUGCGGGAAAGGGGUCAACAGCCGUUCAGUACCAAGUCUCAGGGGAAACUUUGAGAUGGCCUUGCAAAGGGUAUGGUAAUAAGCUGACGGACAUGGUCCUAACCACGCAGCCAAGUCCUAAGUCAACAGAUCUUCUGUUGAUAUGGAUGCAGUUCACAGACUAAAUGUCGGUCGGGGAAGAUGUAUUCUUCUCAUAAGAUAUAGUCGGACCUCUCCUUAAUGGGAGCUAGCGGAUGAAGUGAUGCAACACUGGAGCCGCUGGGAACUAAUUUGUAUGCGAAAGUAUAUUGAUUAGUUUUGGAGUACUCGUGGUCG;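 further: selection with 25 µg/mL kanamycin versus none on LB agar overnight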
Details: 30 °C
Metric Name: self-splicing fitness (ln)

Sequence Record: GUCGAGCAAUAUUACGACGA
Measurement: -3.05

Sequence Record: CGACAGCAAUAUUACGCAAU
Measurement: -4.5

Sequence Record: GGAGAGCAAUAUUACGGCUG
Measurement: -2.1

Sequence Record: ACUAAGCAAUAUUACGAUUC
Measurement: -2.12

Sequence Record: CUGCAGCAAUAUUACGAUUG
Measurement: -0.725

Sequence Record: UGGAAGCAAUAUUACGGGGG
Measurement: -2.52

Sequence Record: ACUUAGCAAUAUUACGUGGA
Measurement: -2.47

Sequence Record: UAUUAGCAAUAUUACGUGUU
Measurement: -3.04

Sequence Record: GACGAGCAAUAUUACGUUCU
Measurement: -4.53

Sequence Record: UAGAAGCAAUAUUACGAGAU
Measurement: -3.64

Sequence Record: GUAAAGCAAUAUUACGAGGA
Measurement: -1.81

Sequence Record: GGCAAGCAAUAUUACGGAUC
Measurement: -0.625

Sequence Record: ACAAAGCAAUAUUACGCCAC
Measurement: -3.01

Sequence Record: AUUAAGCAAUAUUACGCCUU
Measurement: -0.293

Sequence Record: CUUAAGCAAUAUUACGACAC
Measurement: -3.04

Sequence Record: AGGGAGCAAUAUUACGCGUC
Measurement: -3.15
